These data points were gathered from ChEMBL document CHEMBL5291721.

Target protein (sequence): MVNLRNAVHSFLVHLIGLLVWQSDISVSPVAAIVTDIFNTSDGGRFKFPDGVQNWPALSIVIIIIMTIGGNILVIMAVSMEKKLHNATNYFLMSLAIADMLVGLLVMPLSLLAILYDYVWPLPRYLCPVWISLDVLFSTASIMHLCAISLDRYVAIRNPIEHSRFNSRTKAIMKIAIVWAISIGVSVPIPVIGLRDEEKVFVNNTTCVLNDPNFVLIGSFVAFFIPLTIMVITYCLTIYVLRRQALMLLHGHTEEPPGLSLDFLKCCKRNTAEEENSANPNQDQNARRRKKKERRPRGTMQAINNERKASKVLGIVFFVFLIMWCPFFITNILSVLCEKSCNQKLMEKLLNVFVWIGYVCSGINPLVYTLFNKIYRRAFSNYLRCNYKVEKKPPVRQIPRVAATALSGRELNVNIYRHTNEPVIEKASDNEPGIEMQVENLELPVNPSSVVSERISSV
Kindly supply the reported AC50 values for the records listed here.

These solved cases illustrate the format of a correct answer.
INSERT INTO results (compound, value) VALUES
  ('CNC(=O)c1cc(Oc2ccc(NC(=O)Nc3ccc(Cl)c(C(F)(F)F)c3)cc2)ccn1', '> 30 µM'),
  ('CN1CCCN=C1COC(=O)C(O)(c1ccccc1)C1CCCCC1 (stereo not given)', '> 30 µM'),
  ('CS(=O)(=O)c1ccc([C@@H](O)[C@@H](CO)NC(=O)C(Cl)Cl)cc1', '> 30 µM'),
  ('CC(C)Cc1ccc(CC(=O)O)cc1', '> 30 µM');

Lab note: next compound to report on.
**Query** Query (compound): `NC[C@H]1CC[C@H](C(=O)O)CC1` ; field requested: AC50
**Result** > 30 µM
